This section presents compounds with their documented IC50 values.
- Assayed Target: AgrC-IV (Staphylococcus aureus, UniProt Q309Z2)
- Sequence (Q309Z2 1-430): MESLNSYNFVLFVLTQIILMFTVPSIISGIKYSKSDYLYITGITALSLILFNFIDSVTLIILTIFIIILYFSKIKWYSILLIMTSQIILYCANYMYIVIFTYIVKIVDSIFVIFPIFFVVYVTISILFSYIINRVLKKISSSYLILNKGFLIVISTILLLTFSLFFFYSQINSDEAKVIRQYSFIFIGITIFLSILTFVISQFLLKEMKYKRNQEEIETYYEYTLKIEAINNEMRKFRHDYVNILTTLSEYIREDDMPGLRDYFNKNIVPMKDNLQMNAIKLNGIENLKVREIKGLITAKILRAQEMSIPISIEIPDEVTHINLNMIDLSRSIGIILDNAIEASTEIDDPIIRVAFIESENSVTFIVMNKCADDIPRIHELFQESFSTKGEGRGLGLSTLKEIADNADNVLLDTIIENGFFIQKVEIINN
- Assay type: cell-based, S. aureus
- Condition Notes: read-out: AgrC-IV IC50; fluorescence reporter strain; AIPs tested over 200 fM − 10 μM or (b1) 2.5 pM − 10 μM; triplicate
Positions of bridges follow the written chain, without caps; N, C: chain ends. Non-standard residues stand in square brackets, D forms with d. Residues, ends and D or L forms follow the SMILES beside them. NMeF = CN[C@@H](Cc1ccccc1)C(=O)O

- Compound: "CC(C)C[C@@H]1NC(=O)[C@H](CO)NC(=O)[C@H](CO)NC(=O)[C@@H](NC(=O)[C@H](C)NC(=O)[C@H](CC(N)=O)NC(=O)[C@@H](NC(=O)CN)C(C)C)CSC(=O)[C@H](Cc2ccccc2)NC1=O [AIP-II, G-V-N-A-(C-S-S-L-F), reference compound] (H-GVNACSSLF; thioester 5-C)"
  Units: "nM"
  Qualifying Sign: "="
  IC50: 0.396
- Compound: "CC[C@H](C)[C@H](N)C(=O)N[C@@H](CC(N)=O)C(=O)N[C@H]1CSC(=O)[C@H](C)NC(=O)[C@H](CC(C)C)NC(=O)[C@H](Cc2ccccc2)NC(=O)[C@H](CC(=O)O)NC1=O [AIP-III L7A, I-N-(C-D-F-L-A)] (H-INCDFLA; thioester 3-C)"
  Units: "nM"
  Qualifying Sign: ">"
  IC50: 200
- Compound: "CC[C@H](C)[C@H](N)C(=O)N[C@@H](CC(N)=O)C(=O)N[C@H]1CSC(=O)[C@H](CC(C)C)NC(=O)[C@H](CC(C)C)NC(=O)[C@H](Cc2ccccc2)N(C)C(=O)[C@H](CC(=O)O)NC1=O [AIP-III N-Me-F5, I-N-(C-D-NMeF-L-L)] (H-INCD[NMeF]LL; thioester 3-C)"
  Units: "nM"
  Qualifying Sign: "="
  IC50: 6.59

---

- Assayed Target: AgrC-II (Staphylococcus aureus)
- Sequence (O33587 1-437): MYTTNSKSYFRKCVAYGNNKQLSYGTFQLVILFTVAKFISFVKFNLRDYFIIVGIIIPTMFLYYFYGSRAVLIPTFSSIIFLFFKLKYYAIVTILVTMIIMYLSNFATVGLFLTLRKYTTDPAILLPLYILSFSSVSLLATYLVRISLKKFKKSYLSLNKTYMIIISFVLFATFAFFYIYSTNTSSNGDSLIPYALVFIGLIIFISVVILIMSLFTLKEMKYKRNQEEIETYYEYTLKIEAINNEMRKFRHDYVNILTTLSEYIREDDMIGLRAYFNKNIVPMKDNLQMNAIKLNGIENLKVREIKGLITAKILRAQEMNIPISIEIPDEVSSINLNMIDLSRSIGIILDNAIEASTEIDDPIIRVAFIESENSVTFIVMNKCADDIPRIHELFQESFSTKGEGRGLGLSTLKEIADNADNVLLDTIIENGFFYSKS
- Assay Notes: Hemolysis assay, wild-type group-II strain RN6923, rabbit red blood cells
- Condition Notes: read-out: AgrC-II IC50; hemolysis assay; 200 fM − 10 μM
pIC50: −log10 of the molar value. Positions of bridges follow the written chain, without caps; N, C: chain ends. Residues, ends and D or L forms follow the SMILES beside them.
Mark Fulfilled for reported pIC50 of 9 or greater; mark Not fulfilled for anything smaller.

- Molecule: "CC[C@H](C)[C@@H]1NC(=O)[C@H](Cc2ccccc2)NC(=O)[C@H](CC(=O)O)NC(=O)[C@@H](NC(=O)[C@@H](NC(=O)[C@H](CO)NC(=O)[C@@H](N)Cc2ccc(O)cc2)[C@@H](C)O)CSC(=O)[C@H](CCSC)NC1=O [AIP-I, Y-S-T-(C-D-F-I-M), reference compound] (H-YSTCDFIM; thioester 4-C)"
  Category: "Not fulfilled"
- Molecule: "CC[C@H](C)[C@@H]1NC(=O)[C@H](Cc2ccccc2)NC(=O)[C@H](C)NC(=O)[C@@H](NC(C)=O)CSC(=O)[C@H](CCSC)NC1=O [tAIP-I D2A, Ac-(C-A-F-I-M), reference compound] (Ac-CAFIM; thioester 1-C)"
  Category: "Not fulfilled"
- Molecule: "CC[C@H](C)[C@H](N)C(=O)N[C@@H](CC(N)=O)C(=O)N[C@H]1CSC(=O)[C@H](CC(C)C)NC(=O)[C@H](CC(C)C)NC(=O)[C@H](C)NC(=O)[C@H](CC(=O)O)NC1=O [AIP-III F5A, I-N-(C-D-A-L-L)] (H-INCDALL; thioester 3-C)"
  Category: "Not fulfilled"
- Molecule: "CC[C@H](C)[C@H](N)C(=O)N[C@@H](C)C(=O)N[C@H]1CSC(=O)[C@H](CC(C)C)NC(=O)[C@H](CC(C)C)NC(=O)[C@H](Cc2ccccc2)NC(=O)[C@H](CC(=O)O)NC1=O [AIP-III N2A, I-A-(C-D-F-L-L)] (H-IACDFLL; thioester 3-C)"
  Category: "Fulfilled"
- Molecule: "CC[C@H](C)[C@@H]1NC(=O)[C@H](Cc2ccccc2)NC(=O)[C@H](Cc2ccc(O)cc2)NC(=O)[C@@H](NC(=O)[C@@H](NC(=O)[C@H](CO)NC(=O)[C@@H](N)Cc2ccc(O)cc2)[C@@H](C)O)CSC(=O)[C@H](CCSC)NC1=O [AIP-IV, Y-S-T-(C-Y-F-I-M), reference compound] (H-YSTCYFIM; thioester 4-C)"
  Category: "Fulfilled"
